# test.target: D(1A) dopamine receptor (Homo sapiens); further: assay procedure not described here
# Sequence (P21728 whole entry): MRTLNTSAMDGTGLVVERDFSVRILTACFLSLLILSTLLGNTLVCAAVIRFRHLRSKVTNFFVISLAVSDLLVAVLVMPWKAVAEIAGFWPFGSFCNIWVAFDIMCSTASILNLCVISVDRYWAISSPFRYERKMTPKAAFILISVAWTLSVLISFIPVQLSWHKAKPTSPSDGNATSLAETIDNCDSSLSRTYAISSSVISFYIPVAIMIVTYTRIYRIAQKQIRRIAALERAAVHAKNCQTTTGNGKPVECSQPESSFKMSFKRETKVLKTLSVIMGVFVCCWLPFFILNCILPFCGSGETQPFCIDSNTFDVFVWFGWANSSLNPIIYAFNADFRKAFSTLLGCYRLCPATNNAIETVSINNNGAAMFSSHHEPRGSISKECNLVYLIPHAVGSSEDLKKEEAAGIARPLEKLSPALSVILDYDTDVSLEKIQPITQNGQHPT
# Type: functional, cell-based
measured.property: AC50

>  <molecule>
Nc1nc(NC2CC2)c2ncn([C@H]3C=C[C@@H](CO)C3)c2n1

>  <test.target>
D(1A) dopamine receptor (Homo sapiens); further: assay procedure not described here

>  <measured.property>
AC50

>  <experimental.value>
> 30 µM

$$$$
>  <molecule>
CNC(=O)c1ccccc1Sc1ccc2c(/C=C/c3ccccn3)n[nH]c2c1

>  <test.target>
D(1A) dopamine receptor (Homo sapiens); further: assay procedure not described here

>  <measured.property>
AC50

>  <experimental.value>
> 30 µM

$$$$
>  <molecule>
NS(=O)(=O)Cc1noc2ccccc12 [ZONISAMIDE]

>  <test.target>
D(1A) dopamine receptor (Homo sapiens); further: assay procedure not described here

>  <measured.property>
AC50

>  <experimental.value>
> 10 µM

$$$$

Below is a list of molecules. For each, state its recorded AC50.
1. N[C@@H]1[C@H]2CN(c3nc4c(cc3F)c(=O)c(C(=O)O)cn4-c3ccc(F)cc3F)C[C@@H]12
2. Cc1cc(O)c(C(=O)N[C@@H](C(=O)N[C@@H]2C(=O)N3C(C(=O)O)=C(CSc4nnnn4C)CS[C@H]23)c2ccc(O)cc2)cn1 [CEFPIRAMIDE]
3. O=C(NCCNCC(O)COc1ccc(O)cc1)N1CCOCC1 (stereo not given)
4. Cn1nnc2c(C(N)=O)ncn2c1=O [TEMOZOLOMIDE]
5. O=C(O)CCCCCCNC1c2ccccc2CCc2ccccc21

Solution:
1: > 30 µM; 2: > 30 µM; 3: > 30 µM; 4: > 30 µM; 5: > 30 µM

Give measured AC50 for every item shown.
1. COc1ccc(-c2ccc3cc(C(=O)O)ccc3c2)cc1C12CC3CC(CC(C3)C1)C2
2. CC(C)Cn1cnc2c(N)nc3ccccc3c21
3. CC(CC(c1ccccc1)c1ccccc1)NC(C)(C)C (stereo not given)
4. CCC(C)n1ncn(-c2ccc(N3CCN(c4ccc(OCC5COC(Cn6cncn6)(c6ccc(Cl)cc6Cl)O5)cc4)CC3)cc2)c1=O (stereo not given)
5. CC[C@@H]1C(=O)OC[C@@H]1Cc1cncn1C
6. COc1cc2c(N)nc(N3CCN(C(=O)OCC(C)(C)O)CC3)nc2c(OC)c1OC
7. COCCCN1CCC(NC(=O)c2cc(Cl)c(N)c3c2OCC3)CC1 [PRUCALOPRIDE]
8. CC(C)(C)NCC(O)COc1cccc2c1CCC(=O)N2 (stereo not given)

Solution:
1: > 30 µM; 2: > 10 µM; 3: > 30 µM; 4: > 30 µM; 5: > 10 µM; 6: > 30 µM; 7: > 30 µM; 8: > 10 µM
